Reported EC50 is given for each of the following compounds.
Test system: SMN2 promoter
Test: SMN2 promoter assay (β-lactamase reporter) in NSC-34 cells
Assay type: cell-based, mouse
Conditions: SMN2 promoter driving β-lactamase, 12 point dose curve, average of 3-6 dose curve experiments

In the examples that follow, each entry is paired with its recorded EC50.
Compound	EC50
Nc1nc(N)c2c(OC3C4CC5CC(C4)CC3C5)cccc2n1 (centres unmarked)	< 1000 nM
Nc1nc(N)c2c(OCC3CCN(C(=O)c4ccccc4I)CC3)cccc2n1	< 1000 nM
Nc1nc(N)c2c(OCC3CCN(C(=O)c4ccc(I)cc4)CC3)cccc2n1	< 1000 nM
Nc1nc(N)c2c(OCC3CCN(C(=O)c4cccc(I)c4)CC3)cccc2n1	< 1000 nM

Now examine the next entry.
# return recorded EC50 for input COc1cccc2c1OCC2Oc1cccc2nc(N)nc(N)c12 (centres unmarked)
1000 to 5000 nM
